# tgt: FLT3 (Homo sapiens, UniProt P36888)
# Sequence (P36888 27-993): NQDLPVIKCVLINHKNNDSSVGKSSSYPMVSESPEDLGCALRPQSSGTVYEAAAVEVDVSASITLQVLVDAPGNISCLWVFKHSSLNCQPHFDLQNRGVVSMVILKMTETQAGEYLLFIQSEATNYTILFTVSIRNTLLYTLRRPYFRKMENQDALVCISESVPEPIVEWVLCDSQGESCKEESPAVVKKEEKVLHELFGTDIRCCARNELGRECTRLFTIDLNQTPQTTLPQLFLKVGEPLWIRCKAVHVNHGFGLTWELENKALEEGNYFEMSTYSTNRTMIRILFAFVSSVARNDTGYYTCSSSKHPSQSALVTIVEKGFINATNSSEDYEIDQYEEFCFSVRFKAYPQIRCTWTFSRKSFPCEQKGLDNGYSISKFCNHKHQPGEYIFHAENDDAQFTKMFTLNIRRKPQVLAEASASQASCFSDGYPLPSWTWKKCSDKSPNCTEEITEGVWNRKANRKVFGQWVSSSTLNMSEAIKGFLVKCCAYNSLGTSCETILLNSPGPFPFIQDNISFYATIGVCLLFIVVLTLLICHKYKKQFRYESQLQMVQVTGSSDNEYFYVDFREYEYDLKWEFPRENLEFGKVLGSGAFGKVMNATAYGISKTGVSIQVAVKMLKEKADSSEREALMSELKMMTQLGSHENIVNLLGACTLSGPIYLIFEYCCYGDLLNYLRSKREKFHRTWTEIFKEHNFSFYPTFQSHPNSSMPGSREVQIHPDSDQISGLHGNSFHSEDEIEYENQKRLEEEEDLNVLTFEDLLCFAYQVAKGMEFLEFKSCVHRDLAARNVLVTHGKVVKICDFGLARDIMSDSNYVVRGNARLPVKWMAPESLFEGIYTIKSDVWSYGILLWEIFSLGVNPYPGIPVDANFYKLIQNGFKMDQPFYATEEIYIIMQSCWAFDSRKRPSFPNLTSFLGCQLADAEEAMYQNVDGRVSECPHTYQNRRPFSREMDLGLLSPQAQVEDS
# procedure-summary: Reaction Biology NanoBRET target engagement assay in HEK-293 cells, FLT3
# Format: cell-based
# recorded-conditions: live HEK-293 cells transfected with Kinase-NanoLuc fusion, 1 hour
pIC50: −log10 of the molar value.
Is pIC50 at least 7? Then TRUE. If not, FALSE.

[
  {
    "molecule": "CC(O)(c1ccc2ncc(-c3ccnc(N[C@H]4CNCC[C@@H]4F)n3)n2c1)C(F)(F)F (single isomer, unassigned) [Compound 25a]",
    "classification": "TRUE"
  },
  {
    "molecule": "CC(O)(c1ccc2ncc(-c3ccnc(N[C@@H]4CCCNC4)n3)n2c1)C(F)(F)F (single isomer, unassigned) [Compound 23a]",
    "classification": "TRUE"
  },
  {
    "molecule": "COc1cc2ncc(-c3nc(N[C@H]4CNCC[C@@H]4F)ncc3F)n2nc1C(C)(C)O [Compound 45a]",
    "classification": "TRUE"
  },
  {
    "molecule": "CC(O)(c1ccc2ncc(-c3cncc(N[C@H]4CNCC[C@@H]4F)n3)n2c1)C(F)(F)F (single isomer, unassigned) [Compound 31a]",
    "classification": "FALSE"
  },
  {
    "molecule": "COc1cc2ncc(-c3nc(N[C@H]4CNCC[C@@H]4F)ncc3F)n2nc1N1CCCS1(=O)=O [Compound 112a]",
    "classification": "TRUE"
  },
  {
    "molecule": "CC(O)(c1ccc2ncc(-c3cncc(N[C@@H]4CCCNC4)n3)n2c1)C(F)(F)F (single isomer, unassigned) [Compound 28a]",
    "classification": "FALSE"
  }
]
